measured-target: ENTHD1
protocol-description: pooled miR-30 sensor sort-seq; sequence = guide strand
assay-setup: shRNA
Param threshold (-0.7) applies to sensor-assay potency score (higher = more potent); output Fulfilled when value >= threshold, Not fulfilled when value < threshold.

# seq-string, class
rows = [
    ("TTTAACTCCTAACACTAGCATC", "Not fulfilled"),
    ("TATACTTCTTCTCTGAAGCAGA", "Fulfilled"),
    ("TAGAAGACAACTGTTGATGGGA", "Fulfilled"),
    ("TTGTGAACTATTCAGACTCATG", "Not fulfilled"),
    ("TATTTGTAAAGATACCATCTGA", "Fulfilled"),
]

* * *

measured-target: RIC8A
protocol-description: pooled miR-30 sensor sort-seq; sequence = guide strand
assay-setup: shRNA
Binary classification by sensor-assay potency score (higher = more potent), with -1 as an inclusive lower bound for met; all other cases are not met.

# seq-string, class
measured = [
    ("TAGTCTCGCACATGGCATCCTG", "not met"),
    ("TTTGAGGATCTCCATGGCCCGC", "not met"),
    ("TTGGGCATCATCAAACGTGAAG", "met"),
    ("TTTCAGCTCCTGAAACAGCTGC", "met"),
    ("TACACTCTCCTTCAGCCTGTGT", "not met"),
    ("AAGAACTGGACATCGTGGGGGA", "met"),
]

* * *

measured-target: CCDC47
protocol-description: pooled miR-30 sensor sort-seq; sequence = guide strand
assay-setup: shRNA
Tick satisfied if sensor-assay potency score (higher = more potent) is -0.04 or greater. Tick not satisfied if sensor-assay potency score (higher = more potent) is less than -0.04.

# seq-string, class
records = [
    ("TTCTCTGTTGAGTCGGAACTTT", "not satisfied"),
    ("TTCAGTAACAGAGTCTTCCATG", "not satisfied"),
    ("TTAAATGTAAACAACAGTGTCC", "satisfied"),
    ("TTCTAGATAATAACTCTCCCAG", "not satisfied"),
    ("TTTTGCTAGAAGAAGTATCTGG", "satisfied"),
    ("TTGCACTTGATCACTCACTGGC", "satisfied"),
]

* * *

measured-target: IGFBP7
protocol-description: pooled miR-30 sensor sort-seq; sequence = guide strand
assay-setup: shRNA
experimental-readout: sensor-assay potency score (higher = more potent)

# seq-string, measurement
data = [
    ("TTGCACACGCACACGCCGCTTA", -0.533),
    ("TAGAGGAGATACCAGCACCCAG", -1.77),
    ("TATTTCTCTGTGTAAAACCAGT", -0.876),
    ("TTATTTTGTATTTCTCTGTGTA", 0.738),
    ("TGTCCTTTGAACTCCATAGTGA", -0.0168),
    ("TAGTCTTGATGTGTGATCTTTA", -0.24),
    ("TATAACTAAAGTGTTAGTGGAT", 0.0715),
]

* * *

# sensor-assay potency score (higher = more potent) listing for each entry below
measured-target: UPK1A
protocol-description: pooled miR-30 sensor sort-seq; sequence = guide strand
assay-setup: shRNA
experimental-readout: sensor-assay potency score (higher = more potent)

# seq-string, measurement
rows = [
    ("TAGGACGTGATGCAGGAGGCGC", -1.09),
    ("TTGGTGAACAGGTAGTCCATGT", -0.409),
    ("ATGGCTATCAGCATGACCGGGA", -0.114),
    ("TACTGGTCGGCTGTCACCCATA", -1.44),
    ("TAGCTGTCGATGGCGTGGCCGA", -1.49),
    ("TCTTGCTCAATCATGACGCGGT", 0.151),
    ("TACGTGAGGACCATGGACCGGC", 0.148),
    ("TAGAAGGTCAGCATCTGCTTGG", -0.08),
    ("TAGCAGGCCCACCACAACTGGA", -1.8),
]

* * *

measured-target: AMY2A
protocol-description: pooled miR-30 sensor sort-seq; sequence = guide strand
assay-setup: shRNA
experimental-readout: sensor-assay potency score (higher = more potent)

# seq-string, measurement
rows = [
    ("TTGTACAGCCTAGCATCCCAGA", -1.14),
    ("TTAAGTAAGACATCTTCTCTCC", 0.353),
    ("TTTACCATCATTGAAATCCCAT", -0.145),
    ("TACATTGCGGAAAATAACCATG", -1.22),
]

* * *

Measured sensor-assay potency score (higher = more potent), listed per entry for reference.
measured-target: DOCK11
protocol-description: pooled miR-30 sensor sort-seq; sequence = guide strand
assay-setup: shRNA
experimental-readout: sensor-assay potency score (higher = more potent)

# seq-string, measurement
measured = [
    ("TTGATCTTCTTTAATTAGCCGC", -0.638),
    ("TGATCTTAGATAACTATCCAAG", -1.04),
    ("TAAACTGTCGGTGTTGATCTGA", 0.463),
    ("TTCACTATAATGGACATCCATC", -1.02),
    ("TTCTTGAACTAAACTGTCGGTG", -0.436),
    ("TTTCTTGAACTAAACTGTCGGT", 0.142),
    ("TTGCTTTATGCAACCAGCCTTG", -0.849),
    ("TTCTCTTCCAACAAGTATGTGG", -0.568),
    ("TTTAGCTGTCCTGTGCACCTTC", 0.773),
]

* * *

measured-target: FRRS1
protocol-description: pooled miR-30 sensor sort-seq; sequence = guide strand
assay-setup: shRNA
experimental-readout: sensor-assay potency score (higher = more potent)

# seq-string, measurement
measured = [
    ("TAAATTGCCAACACTGCCTTTT", -0.275),
    ("TAACTTCAATCTGATCTCCTGG", 0.0664),
    ("TATGCTAACAGTAGTCATCCAT", 0.0935),
    ("TAAGGCACCATGAACCTTCAGA", -0.182),
    ("TAACAGTAGTCATCCATGCCAC", -0.274),
    ("TTTTATACTTCTCAACAACTGT", -0.421),
]

* * *

measured-target: PELI3
protocol-description: pooled miR-30 sensor sort-seq; sequence = guide strand
assay-setup: shRNA
Label yes (1) for high-side sensor-assay potency score (higher = more potent) (at or above -0.5) and no (0) for low-side sensor-assay potency score (higher = more potent) (below it).

# seq-string, class
data = [
    ("TTGCTAGAGGCATCGAAGCCAG", "no (0)"),
    ("ATCATGTGTATACTCCACTATG", "no (0)"),
    ("TGTCTGTGTCGCTATCATGTGT", "yes (1)"),
    ("TATCATGTGTATACTCCACTAT", "yes (1)"),
    ("TGGAACATGTCTGTGTCGCTAT", "yes (1)"),
    ("AAGTCAATCATGTTCTCTGTGG", "yes (1)"),
    ("TCAATCATGTTCTCTGTGGAGC", "yes (1)"),
    ("TACACATTCCCACAGACCGAGA", "no (0)"),
    ("ATTGGTGGTCAGTCCATCCATC", "no (0)"),
]

* * *

Reported sensor-assay potency score (higher = more potent) values are given for each entry in this list.
measured-target: PRB2
protocol-description: pooled miR-30 sensor sort-seq; sequence = guide strand
assay-setup: shRNA
experimental-readout: sensor-assay potency score (higher = more potent)

# seq-string, measurement
measured = [
    ("TCGGGACTTGTTGTCTCCTTGT", -0.96),
    ("TTCGGGACTTGTTGTCTCCTTG", -0.146),
    ("TTGGGACTTGTTGTCTCCTTGT", -0.258),
    ("TTGTTGTCTCCTTGTGGGGGTG", -1.06),
    ("TCGAGAACTTCGGGACTTGTTG", -0.988),
    ("AGGAGATCGAGAACTTCGGGAC", -1.14),
    ("TTGAGGCTGGTTGCCTCCTTGT", -1.75),
    ("GAGGAGATCGAGAACTTCGGGA", -0.989),
]

* * *

measured-target: PATL1
protocol-description: pooled miR-30 sensor sort-seq; sequence = guide strand
assay-setup: shRNA
Respond with Yes for sensor-assay potency score (higher = more potent) values of -0.5 and above, No for values below.

# seq-string, class
measured = [
    ("TTTGTGCTTTCTGTCATCCATT", "No"),
    ("TTTCGGATACACATGATCTGTA", "Yes"),
    ("TAGCAGGGTCTGAACTCTGTAG", "No"),
    ("TGATCTTGATGACTGCTCCGGT", "Yes"),
    ("TTGAGGTAGGTTCATTAGCTGT", "No"),
    ("TATTCTGTTGCTGTCTCTGATG", "No"),
    ("TTTCTCAATTATAACAAGGGTT", "No"),
    ("TTTGTGTTGATTCTGTAGCAGG", "No"),
]

Reference source for all entries: the OligoGym collection
